Test system: UACC-257
Assay: NCI tumour cell line growth inhibition, 48 h
Activity calls are given as the source filed them. Rule as the data show it: active = GI50 up to about 1.1 µM and inactive = higher.
Reported Property: GI50

Study these solved cases before continuing.
compound="Cc1[nH]c(=O)[nH]c(=O)c1/C=C/C(=O)NC(CO)C[S+]([O-])Cc1ccccc1 (centres undefined)" result="> 300 µM (inactive)"
compound=C=CCn1c2ccccc2c2c(C)c3cnccc3c(C)c21 result="7.23 µM (inactive)"
compound=COC1=C(OC)C(=O)C(Cc2c(Cl)nc3sc(C)cn23)=C(C)C1=O result="10.4 µM (inactive)"

Lab note: next compound to report on.
According to the records, this compound COC(=O)C(=O)C(C(=O)C(=O)Nc1nc2ccc(C)cc2s1)c1nc2ccc([N+](=O)[O-])cc2nc1O (centres undefined) displays GI50 of > 100 µM (inactive)
